Molecular target: T1, recombinant human Siglec15-his protein (human, UniProt Q6ZMC9 20-263)
T1 construct: In house made; Biotin-labeled in the capture ELISA
T1 sequence: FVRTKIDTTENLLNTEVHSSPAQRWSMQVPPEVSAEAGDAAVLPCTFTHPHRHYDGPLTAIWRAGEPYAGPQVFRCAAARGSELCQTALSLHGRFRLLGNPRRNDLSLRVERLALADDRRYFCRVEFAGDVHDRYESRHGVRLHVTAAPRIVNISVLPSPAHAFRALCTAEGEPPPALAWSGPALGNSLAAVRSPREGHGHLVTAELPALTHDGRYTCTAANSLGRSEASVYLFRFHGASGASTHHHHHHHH
Experiment: capture ELISA, captured antibody, biotin-labeled human Siglec15-his in solution
measured.attribute: EC50 (nM)
Provide the reading as a plain figure in nM.

Sample records with EC50:
binder	EC50 (nM)
B2G12H3E8 (antibody, V domains shown, Mouse monoclonal antibody from hybridoma; also called mouse B2G12H3E8) VH: QVQLKQSGAELVRPGTSVQMSCKAVGYTFTNYWIGWVKQRPGHGLEWVGDIHPGINYTNNNEKFRGKATLTADTSSSTAYMQLRGLTSDDSAIYYCARVDYDYDGSYIMDYWGQGTSVTVSS VL: QIVLSQSPALLSASPGEKVTMTCRASSSVSYMYWYQQKPGSSPKPWIYATSNLTSGVPARFSGSGSGTSYSLTISRVEAEDAATYFCQQWNSKPWTFGGGSKLEIR	0.0859
B2D7H7A3C1 (antibody, V domains shown, Mouse monoclonal antibody from hybridoma; also called mouse B2D7H7A3C1) VH: QVQLQQSGAELVRPGTSVQMSCKAAGYTFTNYWIGWVKQRPGHGLEWVGDIHPGINYTNNNEKFRGKATLTADTSSNTAYMQLRGLTSDDSAIYYCARVDYDYDGSYIMDYWGQGTSVTVSS VL: QIVLSQSPALLSASPGEKVTMTCRASSSVSYMYWYQQKPGSSPKPWIYATSNLTSGVPARFSGSGSGTSYSLTISRVEAEDAATYFCQQWNSKPWTFGGGSKLEIR	0.101
B2H2H1H7 (antibody, V domains shown, Mouse monoclonal antibody from hybridoma; also called mouse B2H2H1H7; B2H2H1A7) VH: QVQLQQSGAELVRPGTSVQMSCKAAGYTFTNYWIGWVKQRPGHGLEWVGDIHPGINYTNNNEKFRGKATLTADTSSSTAYMQLRGLTSDDSAIYYCARVDYDYDGSYIMDYWGQGTSVTVSS VL: QIILSQSPALLSASPGEKVTMTCRASSSVSYMYWYQQKPGSSPKPWIYATSNLTSGVPARFSGSGSGTSYSLTISRVEAEDAATYFCQQWNSKPWTFGGGSRLEIR	0.0937

# context switch: different binder, same EC50
q: Please indicate EC50 recorded for anti-Siglec15 benchmark (ch5G12) (antibody, human IgG1, kappa, V domains shown, ch5G12 (US 20190202912A1); also called BM; Siglec15-ch5G9) VH: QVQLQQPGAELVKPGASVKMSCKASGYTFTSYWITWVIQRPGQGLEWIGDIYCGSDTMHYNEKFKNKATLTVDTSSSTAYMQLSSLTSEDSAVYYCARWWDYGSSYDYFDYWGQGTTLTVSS VL: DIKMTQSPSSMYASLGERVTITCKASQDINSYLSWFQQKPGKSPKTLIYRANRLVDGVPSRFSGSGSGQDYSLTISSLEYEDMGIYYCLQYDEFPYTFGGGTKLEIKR
a: 1.64
